test: In vivo tissue distribution test; design: species or system ICR mice; conditions: mouse, kidney, po; ICR mice, p.o. 100 mg/kg, 1.5 hr; read-out: Kidney concentration
The entries below are paired with their reported concentration at 1.5 h.
Report only the number, with the unit ng/g understood.

compound="CO/N=C1/CN(c2nc3c(cc2F)c(=O)c(C(=O)O)cn3C2CC2)C[C@@]1(C)CN [L-aspartate (Example 1)]" result_value=77400

Turning now to a further record.
Noted for CON=C1CN(c2nc3c(cc2F)c(=O)c(C(=O)O)cn3C2CC2)C[C@@]1(C)CN.Cl [Hydrochloride (Comparative Example 3)] : its concentration at 1.5 h reads 75500

###

assay: In vivo tissue distribution test; design: species or system ICR mice; conditions: mouse, brain, po; ICR mice, p.o. 100 mg/kg, 1 hr; read-out: Brain concentration
Quantity name: concentration at 1 h (ng/g)
Report only the number, with the unit ng/g understood.

compound="CON=C1CN(c2nc3c(cc2F)c(=O)c(C(=O)O)cn3C2CC2)C[C@@]1(C)CN.Cl [Hydrochloride (Comparative Example 3)]" result_value=3090

Noted for CO/N=C1/CN(c2nc3c(cc2F)c(=O)c(C(=O)O)cn3C2CC2)C[C@@]1(C)CN [L-aspartate (Example 1)] : its concentration at 1 h reads 2550

###

experiment: In vivo tissue distribution test; design: species or system ICR mice; conditions: mouse, muscle, po; ICR mice, p.o. 100 mg/kg, 1 hr; read-out: Muscle concentration
Quantity name: concentration at 1 h (ng/g)
Report only the number, with the unit ng/g understood.

molecule="CON=C1CN(c2nc3c(cc2F)c(=O)c(C(=O)O)cn3C2CC2)C[C@@]1(C)CN.Cl [Hydrochloride (Comparative Example 3)]" quantity_name="concentration at 1 h" result_value=52000

Turning now to a further record.
Noted for CO/N=C1/CN(c2nc3c(cc2F)c(=O)c(C(=O)O)cn3C2CC2)C[C@@]1(C)CN [L-aspartate (Example 1)] : its concentration at 1 h reads 39600

###

experiment: In vivo tissue distribution test; parameters: species or system ICR mice; settings: mouse, lung, po; ICR mice, p.o. 100 mg/kg, 3 hr; read-out: Lung concentration
The entries below are paired with their reported concentration at 3 h.
Report only the number, with the unit ng/g understood.

compound="CON=C1CN(c2nc3c(cc2F)c(=O)c(C(=O)O)cn3C2CC2)C[C@@]1(C)CN.Cl [Hydrochloride (Comparative Example 3)]" result_value=38800

Turning now to a further record.
Noted for CO/N=C1/CN(c2nc3c(cc2F)c(=O)c(C(=O)O)cn3C2CC2)C[C@@]1(C)CN [L-aspartate (Example 1)] : its concentration at 3 h reads 38700

###

Experiment: In vivo tissue distribution test
Set-up: species or system ICR mice
Conditions: mouse, spleen, po; ICR mice, p.o. 100 mg/kg, 5 hr; read-out: Spleen concentration
Method: An in vivo tissue distribution test was performed in order to confirm the degree of drug distribution of the L-aspartate and hydrochloride according to the present invention in each organ. After 8-week-old ICR mice were purchased and adapted in the laboratory, each salt was orally administered to the mouse at a dose of 100 mg/kg. […] Then, P ratio is a ratio of permeation into muscle and calculated as intramuscular AUC/intraplasmic AUC.
The entries below are paired with their reported concentration at 5 h.
Report only the number, with the unit ng/g understood.

compound="CON=C1CN(c2nc3c(cc2F)c(=O)c(C(=O)O)cn3C2CC2)C[C@@]1(C)CN.Cl [Hydrochloride (Comparative Example 3)]" unit_text=ng/g result_value=42100

Turning now to a further record.
Noted for CO/N=C1/CN(c2nc3c(cc2F)c(=O)c(C(=O)O)cn3C2CC2)C[C@@]1(C)CN [L-aspartate (Example 1)] : its concentration at 5 h reads 43700

###

The entries below are paired with their reported concentration at 1 h.
test: In vivo tissue distribution test; parameters: species or system ICR mice; details: mouse, liver, po; ICR mice, p.o. 100 mg/kg, 1 hr; read-out: Liver concentration
Report only the number, with the unit ng/g understood.

compound="CO/N=C1/CN(c2nc3c(cc2F)c(=O)c(C(=O)O)cn3C2CC2)C[C@@]1(C)CN [L-aspartate (Example 1)]" result_value=114000

Turning now to a further record.
Noted for CON=C1CN(c2nc3c(cc2F)c(=O)c(C(=O)O)cn3C2CC2)C[C@@]1(C)CN.Cl [Hydrochloride (Comparative Example 3)] : its concentration at 1 h reads 125000

###

Assay: In vivo tissue distribution test
Parameters: species or system ICR mice
Conditions: mouse, thymus, po; ICR mice, p.o. 100 mg/kg, 2 hr; read-out: Thymus concentration
Protocol: An in vivo tissue distribution test was performed in order to confirm the degree of drug distribution of the L-aspartate and hydrochloride according to the present invention in each organ. After 8-week-old ICR mice were purchased and adapted in the laboratory, each salt was orally administered to the mouse at a dose of 100 mg/kg. […] Then, P ratio is a ratio of permeation into muscle and calculated as intramuscular AUC/intraplasmic AUC.
Quantity name: concentration at 2 hr (ng/g)
Report only the number, with the unit ng/g understood.

molecule="CO/N=C1/CN(c2nc3c(cc2F)c(=O)c(C(=O)O)cn3C2CC2)C[C@@]1(C)CN [L-aspartate (Example 1)]" result_value=40100

Turning now to a further record.
Noted for CON=C1CN(c2nc3c(cc2F)c(=O)c(C(=O)O)cn3C2CC2)C[C@@]1(C)CN.Cl [Hydrochloride (Comparative Example 3)] : its concentration at 2 hr reads 61300

###

The entries below are paired with their reported Tmax.
assay: In vivo pharmacokinetic test; set-up: species or system SD rats; settings: SD, rat, plasma, po; rats, p.o. 100 mg/kg
Report only the number, with the unit h understood.

molecule="CO/N=C1/CN(c2nc3c(cc2F)c(=O)c(C(=O)O)cn3C2CC2)C[C@@]1(C)CN [L-aspartate (Example 1)]" quantity_name=Tmax unit_text=h result_value=2.13

Turning now to a further record.
Noted for CON=C1CN(c2nc3c(cc2F)c(=O)c(C(=O)O)cn3C2CC2)C[C@@]1(C)CN.Cl [Hydrochloride (Comparative Example 3)] : its Tmax reads 2.13

###

experiment: In vivo tissue distribution test; design: species or system ICR mice; settings: mouse, heart, po; ICR mice, p.o. 100 mg/kg, 1 hr; read-out: Heart concentration
The entries below are paired with their reported concentration at 1 h.
Field: value (include unit after the number)

compound="CON=C1CN(c2nc3c(cc2F)c(=O)c(C(=O)O)cn3C2CC2)C[C@@]1(C)CN.Cl [Hydrochloride (Comparative Example 3)]" result_value="61200 ng/g"

Noted for CO/N=C1/CN(c2nc3c(cc2F)c(=O)c(C(=O)O)cn3C2CC2)C[C@@]1(C)CN [L-aspartate (Example 1)] : its concentration at 1 h reads 58000 ng/g

###

assay: In vivo tissue distribution test; design: species or system ICR mice; details: ICR, mouse, muscle, po, 100 mg/kg; read-out: P ratio Muscle
The entries below are paired with their reported Kp.
Field format: numeric only.

Noted for CON=C1CN(c2nc3c(cc2F)c(=O)c(C(=O)O)cn3C2CC2)C[C@@]1(C)CN.Cl [Hydrochloride (Comparative Example 3)] : its Kp reads 3.92

Noted for CO/N=C1/CN(c2nc3c(cc2F)c(=O)c(C(=O)O)cn3C2CC2)C[C@@]1(C)CN [L-aspartate (Example 1)] : its Kp reads 3.87

###

The entries below are paired with their reported concentration at 8 h.
Assay: In vivo tissue distribution test
Set-up: species or system ICR mice
Settings: mouse, liver, po; ICR mice, p.o. 100 mg/kg, 8 hr; read-out: Liver concentration
Experimental: An in vivo tissue distribution test was performed in order to confirm the degree of drug distribution of the L-aspartate and hydrochloride according to the present invention in each organ. After 8-week-old ICR mice were purchased and adapted in the laboratory, each salt was orally administered to the mouse at a dose of 100 mg/kg. […] Then, P ratio is a ratio of permeation into muscle and calculated as intramuscular AUC/intraplasmic AUC.
Report only the number, with the unit ng/g understood.

Noted for CON=C1CN(c2nc3c(cc2F)c(=O)c(C(=O)O)cn3C2CC2)C[C@@]1(C)CN.Cl [Hydrochloride (Comparative Example 3)] : its concentration at 8 h reads 27000

Noted for CO/N=C1/CN(c2nc3c(cc2F)c(=O)c(C(=O)O)cn3C2CC2)C[C@@]1(C)CN [L-aspartate (Example 1)] : its concentration at 8 h reads 26600

###

experiment: In vivo pharmacokinetic test; parameters: species or system SD rats; conditions: SD, rat, plasma, iv; rats, i.v. 10 mg/kg
The entries below are paired with their reported AUC(0-t).
Report only the number, with the unit ng·h/mL understood.

molecule="CO/N=C1/CN(c2nc3c(cc2F)c(=O)c(C(=O)O)cn3C2CC2)C[C@@]1(C)CN [L-aspartate (Example 1)]" result_value=7520

Turning now to a further record.
Noted for CON=C1CN(c2nc3c(cc2F)c(=O)c(C(=O)O)cn3C2CC2)C[C@@]1(C)CN.Cl [Hydrochloride (Comparative Example 3)] : its AUC(0-t) reads 8720
